- target-of-assay: T1, human Gro-alpha (human, UniProt P09341 35-107)
- T1 sequence (looked up): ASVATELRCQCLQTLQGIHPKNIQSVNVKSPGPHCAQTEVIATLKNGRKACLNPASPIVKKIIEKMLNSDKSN
- test: cell-based or functional assay
Field: FLIPR IC50. Provide a value for each of the binders that follow.

Inquiry: Data request, read-out FLIPR IC50, for 2X810.3 (antibody, IgG1, V domains shown) VH: QIQLQQSGPEVVKPGASVKISCKASGYIFTDNYIDWVQQRPGQGLEWIGWIFPGSGNTKYNEKFKGKATLTVDTFSSTAYMQLSSLTSEDTAVYFCAREIDYDYDGFFDVWGAGTTVTVSS VL: DIVMTPSHTFMSTSVGDRVIITSKASQDVGSAVAWYQQKPGQSPTLLIYWASTRHTGVPDRFTGSGSGTDFTLTISNLQSEDLADYFCQQYSTYPLTFGAGTKLELK
Reply text: > 67 µg/mL

Inquiry: Data request, read-out FLIPR IC50, for 2X352.3 (antibody, IgG1, V domains shown) VH: QIQLVQSGPELKKPGETVKISCKASGYTLTYYGIHWVTQTPGKGLNWMGWINTNTGEPTYVEEFKGRFAFSLETSASTAYLQITDLKNEDTATYFCAKATYDGYSDYWGQGTTLTVSS VL: DIQMTQSPASLSVSVGESVTITCRASENIYSNLAWYQQKQGKSPQLLVYDATNLAHGVPSRFSGSGSGTQFSLRINSLQSEDFGSYYCQHFWGTPLTFGAGTRLELK
Reply text: 2.06 µg/mL
